# MEASURED ON: HCV polymerase 1B (Δ21 NS5B, HCV Strain 1B BK) (Hepatitis C virus genotype 1b)
# Construct: 20 to 50 nM Δ21 NS5B
# Sequence (P26663 2420-2989, stated change not applied): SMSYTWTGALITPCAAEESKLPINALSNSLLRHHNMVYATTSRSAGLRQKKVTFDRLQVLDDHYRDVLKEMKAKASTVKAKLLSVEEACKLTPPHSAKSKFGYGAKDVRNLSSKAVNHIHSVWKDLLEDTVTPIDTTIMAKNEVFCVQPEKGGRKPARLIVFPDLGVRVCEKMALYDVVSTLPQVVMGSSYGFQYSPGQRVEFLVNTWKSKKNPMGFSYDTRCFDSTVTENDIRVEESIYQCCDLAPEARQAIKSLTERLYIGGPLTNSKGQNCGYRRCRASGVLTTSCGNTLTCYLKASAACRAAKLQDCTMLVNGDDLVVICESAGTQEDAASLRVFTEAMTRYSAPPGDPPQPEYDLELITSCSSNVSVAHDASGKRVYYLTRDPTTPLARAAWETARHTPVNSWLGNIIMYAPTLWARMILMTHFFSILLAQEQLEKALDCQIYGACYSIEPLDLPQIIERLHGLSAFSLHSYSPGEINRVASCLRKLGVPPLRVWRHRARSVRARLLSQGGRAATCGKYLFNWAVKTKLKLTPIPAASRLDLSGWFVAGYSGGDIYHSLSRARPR
# ASSAY PROTOCOL: biochemical
MEASURE: IC50

Value of IC50 reported for the compound COc1c(/C=C(\F)c2ccc(NS(C)(=O)=O)cc2)cc(N2CCC(=O)NC2=O)cc1C(C)(C)C [IA-L1-1.4] is < 10 nM

The reported value for COc1c(/C=C/c2ccc(NS(C)(=O)=O)cc2)cc(-n2ccc(=O)[nH]c2=O)cc1-c1cccnc1 [IB-L1-1.53] in terms of IC50 is > 1000 nM

Sample COc1c(/C=C/c2ccc(NS(C)(=O)=O)c(F)c2)cc(N2CCC(=O)NC2=O)cc1C(C)(C)C [IA-L1-1.26] ; IC50 observed: 10 to 100 nM

Consider COc1c(/C=C/c2ccc(NS(C)(=O)=O)cc2C(=O)N2CCC2)cc(-n2ccc(=O)[nH]c2=O)cc1C(C)(C)C [IB-L1-1.22] . Its measured IC50 is 10 to 100 nM

So for CCOc1c(/C=C/c2ccc(NS(C)(=O)=O)cc2)cc(-n2ccc(=O)[nH]c2=O)cc1C(C)(C)C [IB-L1-1.30] , the logged IC50 turned out to be 10 to 100 nM

compound COc1c(/C=C/c2ccc(N(C(C)=O)S(C)(=O)=O)cc2)cc(N2CCC(=O)NC2=O)cc1C(C)(C)C [IA-L1-1.11] , IC50 observed: 10 to 100 nM

COc1c(/C=C/c2ccc(NS(C)(=O)=O)cc2)cc(-n2ccc(=O)[nH]c2=O)cc1S(C)(=O)=O [IB-L1-1.49] has a reported IC50 of 100 to 1000 nM

Kindly note the recorded IC50 for COc1c(/C=C/c2ccc(NS(C)(=O)=O)cc2C(=O)N2CCCC2)cc(-n2ccc(=O)[nH]c2=O)cc1C(C)(C)C [IB-L1-1.27] , which is 10 to 100 nM

COc1c(/C=C/c2ccc(NS(C)(=O)=O)cc2NC(=O)OC(C)(C)C)cc(-n2ccc(=O)[nH]c2=O)cc1C(C)(C)C [IB-L1-1.32] yielded IC50 of 100 to 1000 nM

Noted for COc1c(/C=C/c2ccc(NS(C)(=O)=O)cc2C(N)=O)cc(-n2ccc(=O)[nH]c2=O)cc1C(C)(C)C [IB-L1-1.21] : its IC50 reads 10 to 100 nM

IC50 reading for COc1c(/C=C/c2ccc(NS(C)(=O)=O)cc2CNCCC(C)C)cc(-n2ccc(=O)[nH]c2=O)cc1C(C)(C)C [IB-L1-1.31] : 100 to 1000 nM

Query COc1c(/C=C/c2ccc(NS(C)(=O)=O)cc2)cc(-n2ccc(=O)[nH]c2=O)cc1-c1cccs1 [IB-L1-1.48] yields IC50 of 10 to 100 nM

# IC50 of COc1c(I)cc(-n2ccc(=O)[nH]c2=O)cc1/C=C/c1ccc(NS(C)(=O)=O)cc1 [IB-L1-1.51] = 10 to 100 nM

IC50 measured on COc1c(/C=C(\C)c2ccc([N+](=O)[O-])cc2)cc(N2CCC(=O)NC2=O)cc1C(C)(C)C [IA-L1-1.24] = > 1000 nM
